Measured pIC50, listed per entry for reference.
- experimental-system: rat (r) TRPV3 (Rattus norvegicus)
- Construct: expressed in transfected cells
- Sequence (Q4QYD9 1-791): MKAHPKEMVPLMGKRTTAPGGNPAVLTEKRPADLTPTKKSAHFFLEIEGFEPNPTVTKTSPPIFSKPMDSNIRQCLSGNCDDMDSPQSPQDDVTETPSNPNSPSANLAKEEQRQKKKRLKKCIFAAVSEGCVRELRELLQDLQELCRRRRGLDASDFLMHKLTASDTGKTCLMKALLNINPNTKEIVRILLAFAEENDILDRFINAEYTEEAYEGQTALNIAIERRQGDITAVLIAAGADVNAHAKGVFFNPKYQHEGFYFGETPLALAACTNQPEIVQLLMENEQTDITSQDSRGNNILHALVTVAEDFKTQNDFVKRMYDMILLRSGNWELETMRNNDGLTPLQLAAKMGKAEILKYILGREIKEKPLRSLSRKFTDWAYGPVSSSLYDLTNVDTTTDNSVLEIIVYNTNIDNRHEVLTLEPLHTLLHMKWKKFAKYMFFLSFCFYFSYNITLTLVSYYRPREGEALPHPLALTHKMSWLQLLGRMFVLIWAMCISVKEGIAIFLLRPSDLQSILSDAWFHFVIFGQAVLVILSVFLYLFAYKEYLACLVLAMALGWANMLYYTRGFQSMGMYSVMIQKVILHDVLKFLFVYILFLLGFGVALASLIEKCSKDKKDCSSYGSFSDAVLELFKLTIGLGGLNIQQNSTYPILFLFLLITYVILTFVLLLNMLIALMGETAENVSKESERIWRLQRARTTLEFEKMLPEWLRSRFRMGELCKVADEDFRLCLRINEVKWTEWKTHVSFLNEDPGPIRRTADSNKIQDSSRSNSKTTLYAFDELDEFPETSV
- method-summary: Whole-cell patch clamp, rat TRPV3-mediated currents;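 further: compounds tested at concentrations up to 30 µM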
- Assay type: cell-based
- condition-notes: Phase 2 outward current, read-out: P2 Out (r)
pIC50: −log10 of the molar value.
measurement-type: pIC50

| chemical-structure | experimental-result |
| --- | --- |
| COc1cccc(/C=C/c2nc3cnccc3c(=O)n2-c2c(C)cccc2OC)c1O | ≥ 6.00 |
| COc1cccc(/C=C/c2nc3ccccc3c(=O)n2-c2c(C)cncc2C)c1O | ≥ 6.30 |
| COc1cccc(C=Cc2nc3cnccc3c(=O)n2-c2c(C)cccc2C)c1O | ≥ 6.30 |
| CCOc1nccc(/C=C/c2nc3ccccc3c(=O)n2-c2ccccc2C)c1O | ≥ 6.30 |
| COc1cccc(/C=C/c2nc3cnccc3c(=O)n2-c2c(C)cccc2Cl)c1O | ≥ 6.30 |
| CCOc1cccc(C=Cc2nc3ccccc3c(=O)n2-c2c(C)cccc2C)c1O | ≥ 6.30 |
| COc1cccc(/C=C/c2nc3ccccc3c(=O)n2-c2c(F)cccc2F)c1O | ≥ 6.30 |
| COc1nccc(/C=C/c2nc3cnccc3c(=O)n2-c2c(C)cccc2C)c1O | ≥ 6.30 |
| COc1cccc(/C=C/c2nc3ccccc3c(=O)n2-c2c(C)ccnc2C)c1O | ≥ 6.00 |
| CCc1cccc(CC)c1-n1c(/C=C/c2cccc(OC)c2O)nc2ccccc2c1=O | ≥ 6.30 |
| COc1nccc(/C=C/c2nc3ccccc3c(=O)n2-c2c(C)cccc2C)c1O | ≥ 6.30 |

---

- experimental-system: hERG (Homo sapiens)
- Sequence (Q12809 whole entry): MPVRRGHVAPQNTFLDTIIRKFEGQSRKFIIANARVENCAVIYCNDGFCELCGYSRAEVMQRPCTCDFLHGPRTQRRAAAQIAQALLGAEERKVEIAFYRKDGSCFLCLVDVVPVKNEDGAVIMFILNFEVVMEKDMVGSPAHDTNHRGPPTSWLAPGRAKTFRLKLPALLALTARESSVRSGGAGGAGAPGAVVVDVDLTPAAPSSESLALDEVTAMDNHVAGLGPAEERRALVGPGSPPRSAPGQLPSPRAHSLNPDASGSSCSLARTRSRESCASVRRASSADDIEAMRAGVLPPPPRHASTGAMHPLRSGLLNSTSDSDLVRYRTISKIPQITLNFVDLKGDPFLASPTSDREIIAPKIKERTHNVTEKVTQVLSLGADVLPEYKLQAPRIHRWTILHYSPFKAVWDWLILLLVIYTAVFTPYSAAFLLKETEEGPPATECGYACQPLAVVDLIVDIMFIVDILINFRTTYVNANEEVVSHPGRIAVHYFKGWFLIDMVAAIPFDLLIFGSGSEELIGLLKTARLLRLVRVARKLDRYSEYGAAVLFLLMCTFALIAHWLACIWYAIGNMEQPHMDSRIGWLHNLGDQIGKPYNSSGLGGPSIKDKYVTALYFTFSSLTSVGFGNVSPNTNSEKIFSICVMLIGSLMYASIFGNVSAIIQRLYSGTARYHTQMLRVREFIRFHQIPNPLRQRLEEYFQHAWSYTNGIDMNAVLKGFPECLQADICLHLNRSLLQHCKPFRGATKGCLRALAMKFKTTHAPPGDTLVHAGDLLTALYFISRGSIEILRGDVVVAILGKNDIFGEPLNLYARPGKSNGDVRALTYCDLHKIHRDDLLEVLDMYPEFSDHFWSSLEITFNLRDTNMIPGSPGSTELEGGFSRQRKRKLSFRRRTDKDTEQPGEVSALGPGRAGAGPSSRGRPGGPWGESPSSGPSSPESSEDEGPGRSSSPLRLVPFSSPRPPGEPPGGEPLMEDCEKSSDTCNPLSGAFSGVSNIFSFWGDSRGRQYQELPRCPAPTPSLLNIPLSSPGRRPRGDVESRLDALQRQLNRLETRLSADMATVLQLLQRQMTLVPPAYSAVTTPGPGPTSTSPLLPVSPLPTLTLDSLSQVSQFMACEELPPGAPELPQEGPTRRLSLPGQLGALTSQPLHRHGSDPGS
- method-summary: in vitro

| chemical-structure | experimental-system | IC50 |
| --- | --- | --- |
| COc1nccc(/C=C/c2nc3ccccc3c(=O)n2-c2c(C)cccc2C)c1O | hERG (Homo sapiens) | ≥ 20 µM |

---

- experimental-system: human (h) TRPV3 (Homo sapiens)
- Construct: expressed in transfected cells; host or cells: HEK293/TREx, tetracycline-induced
- method-summary: Whole-cell patch clamp, human TRPV3-mediated currents;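 further: compounds tested at concentrations up to 30 µM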
- Assay type: cell-based
- condition-notes: Phase 2 inward current, read-out: P2 In (h)
pIC50: −log10 of the molar value.

| chemical-structure | pIC50 |
| --- | --- |
| COc1cccc(/C=C/c2nc3cnccc3c(=O)n2-c2c(C)cccc2Cl)c1O | ≥ 6.30 |
| COc1ccnc(/C=C/c2nc3ccccc3c(=O)n2-c2c(C)cccc2C)c1O | ≥ 5.00 |
| COc1cccc(-n2c(/C=C/c3cccc(OC)c3O)nc3ccccc3c2=O)c1 | ≥ 6.30 |
| Cc1cccc(C)c1-n1c(/C=C/c2cccc(OC(F)(F)F)c2O)nc2ccccc2c1=O | ≥ 6.30 |

---

- experimental-system: human (h) TRPV3 (Homo sapiens)
- Construct: expressed in transfected cells; host or cells: HEK293/TREx, tetracycline-induced
- Sequence (Q8NET8 1-790): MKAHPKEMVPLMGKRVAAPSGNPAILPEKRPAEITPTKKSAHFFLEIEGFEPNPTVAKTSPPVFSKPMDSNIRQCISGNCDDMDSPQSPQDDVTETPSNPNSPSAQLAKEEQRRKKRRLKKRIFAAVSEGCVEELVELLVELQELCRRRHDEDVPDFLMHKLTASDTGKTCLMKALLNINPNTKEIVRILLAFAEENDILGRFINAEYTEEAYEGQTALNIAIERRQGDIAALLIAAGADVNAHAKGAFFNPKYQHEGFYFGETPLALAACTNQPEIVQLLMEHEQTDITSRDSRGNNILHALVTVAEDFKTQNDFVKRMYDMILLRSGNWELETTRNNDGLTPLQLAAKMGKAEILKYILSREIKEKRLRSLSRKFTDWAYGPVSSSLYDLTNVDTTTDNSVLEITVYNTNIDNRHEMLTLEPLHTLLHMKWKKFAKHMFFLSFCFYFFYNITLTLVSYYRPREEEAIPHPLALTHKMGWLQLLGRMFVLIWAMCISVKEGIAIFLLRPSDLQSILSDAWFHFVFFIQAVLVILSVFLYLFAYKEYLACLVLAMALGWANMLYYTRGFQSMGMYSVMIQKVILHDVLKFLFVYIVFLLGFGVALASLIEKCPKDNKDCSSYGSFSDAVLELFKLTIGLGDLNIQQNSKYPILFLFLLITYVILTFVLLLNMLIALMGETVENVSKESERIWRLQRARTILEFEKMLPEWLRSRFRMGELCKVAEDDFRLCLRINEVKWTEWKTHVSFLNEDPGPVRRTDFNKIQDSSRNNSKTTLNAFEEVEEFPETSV
- method-summary: Whole-cell patch clamp, human TRPV3-mediated currents;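 further: compounds tested at concentrations up to 30 µM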
- Type: cell-based
- condition-notes: Phase 1 outward current, read-out: P1 Out (h)
- Procedure: Whole-cell patch clamp experiments permit the detection of currents through the TRPV3 channel in the cell line described above. […] TRPV3 cells were induced 20-48 hours, removed from growth plates, and replated at low density (to attain good single-cell physical separation) on glass coverslips for measurement. […] Currents elicited were quantified at −80 mV and +80 mV. […]
Measured IC50, listed per entry for reference.
measurement-type: IC50

| chemical-structure | experimental-result |
| --- | --- |
| COc1cccc(NC(=O)Nc2nc3ccccc3c(=O)n2-c2c(C)cccc2C)c1O | ≤ 5000 nM |
| COc1ccccc1-n1c(/C=C/c2cccc(OC)c2O)nc2ccccc2c1=O | ≤ 500 nM |
| CCOc1cccc(/C=C/c2nc3cnccc3c(=O)n2-c2c(C)cccc2C)c1O | ≤ 500 nM |
| COc1nccc(/C=C/c2nc3ccccc3c(=O)n2-c2c(C)cccc2C)c1O | ≤ 500 nM |
| CCOc1cccc(C=Cc2nc3cnccc3c(=O)n2-c2ccccc2C)c1O | ≤ 500 nM |
| COc1cccc(/C=C/c2nc3cnccc3c(=O)n2-c2c(C)cccc2C)n1 | ≤ 10000 nM |
| COc1cccc(/C=C/c2nc3ccccc3c(=O)n2-c2c(F)cccc2F)c1O | ≤ 500 nM |
| Cc1ccc(O)c(/C=C/c2nc3cnccc3c(=O)n2-c2c(C)cccc2C)n1 | ≤ 10000 nM |

---

- experimental-system: human (h) TRPV3 (Homo sapiens)
- Construct: expressed in transfected cells; host or cells: HEK293/TREx, tetracycline-induced
- method-summary: Whole-cell patch clamp, human TRPV3-mediated currents;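 further: compounds tested at concentrations up to 30 µM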
- Format: cell-based
- condition-notes: Phase 1 inward current, read-out: P1 In (h)
pIC50: −log10 of the molar value.
Measured pIC50, listed per entry for reference.
measurement-type: pIC50

| chemical-structure | measurement-type | experimental-result |
| --- | --- | --- |
| Cc1ccc(O)c(/C=C/c2nc3cnccc3c(=O)n2-c2c(C)cccc2C)n1 | pIC50 | ≥ 5.00 |
| COc1nccc(/C=C/c2nc3cnccc3c(=O)n2-c2c(C)cccc2C)c1O | pIC50 | ≥ 6.30 |
| Cc1cccc(C)c1-n1c(/C=C/c2cccc(OC(C)C)c2O)nc2ccccc2c1=O | pIC50 | ≥ 6.30 |
| CCOc1cccc(/C=C/c2nc3cnccc3c(=O)n2-c2c(C)cccc2C)c1O | pIC50 | ≥ 6.30 |

---

Measured IC50, listed per entry for reference.
- experimental-system: human (h) TRPV3 (Homo sapiens, UniProt Q8NET8)
- Construct: expressed in transfected cells; host or cells: HEK293/TREx, tetracycline-induced
- method-summary: Whole-cell patch clamp, human TRPV3-mediated currents;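 further: compounds tested at concentrations up to 30 µM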
- Type: cell-based
- condition-notes: Phase 1 inward current, read-out: P1 In (h)
measurement-type: IC50

| chemical-structure | experimental-result |
| --- | --- |
| COc1ccccc1-n1c(/C=C/c2cccc(OC)c2O)nc2cnccc2c1=O | ≤ 10000 nM |
| COc1cccc(/C=C/c2nc3ccccc3c(=O)n2-c2c(C)ccnc2C)c1O | ≤ 500 nM |
| COc1cccc(/C=C/c2nc3ccccc3c(=O)n2-c2c(C)cncc2C)c1O | ≤ 500 nM |
| COc1cccc(/C=C/c2nc3ccccc3c(=O)n2-c2c(C)cccc2OCCO)c1O | ≤ 500 nM |
| CCOc1cccc(C=Cc2nc3ccccc3c(=O)n2-c2c(C)cccc2C)c1O | ≤ 500 nM |
| COc1cccc(-n2c(/C=C/c3cccc(OC)c3O)nc3ccccc3c2=O)c1 | ≤ 500 nM |
